Tested on: MCF7 breast
Assay: NCI-60 one-dose screen, 48 h
Details: 10 µM unless noted
Description: Growth inhibition of the MCF7 human tumor cell line is measured as a screen for anti-cancer activity. Cells are grown in 96 well plates and exposed to the test compound for 48 hours. Compounds are tested at a single concentration, which is 10^-5 M for most compounds. The reported endpoint is percent growth (GI% or GIPRCNT), where numbers from 0 - 100% represent growth inhibition, and numbers from -100% - 0 represent cell death. For example, a value of 40 represents 60% growth inhibition. […]
Compounds without any hit were thinned out: in the full panel of roughly 83,000, 20% have a hit. Active and inactive are the calls of the source. The calls were made as follows: active = growth percent below 10; inactive = the rest.
Bench note: report the call from True for active, False for inactive

-- ask Hi team, can someone confirm the assay call for COc1ccccc1NS(=O)(=O)c1ccc2oc(SC(C)C)nc2c1 ?
-- reply False

-- ask Hi team, can someone confirm the assay call for COc1cc2nnc3c4cccnc4[nH]c3c2cc1OC ?
-- reply True

-- ask Hi team, can someone confirm the assay call for O=C(CCl)Oc1ccc(-c2ccccc2)c(Br)c1 ?
-- reply False

-- ask Hi team, can someone confirm the assay call for N#Cc1nnn(-c2ccc(S(N)(=O)=O)cc2)c1NCC(=O)c1ccccc1 ?
-- reply False

-- ask Hi team, can someone confirm the assay call for COc1cccc(-c2nc3sccn3c2-c2ccnc(NCCCNS(=O)(=O)c3cccc(F)c3)c2)c1 ?
-- reply False

-- ask Hi team, can someone confirm the assay call for COc1cc(C2CC(=O)c3ccccc3N2)cc(OC)c1OC (stereo unspecified) ?
-- reply False

-- ask Hi team, can someone confirm the assay call for O=C1c2cc3c(cc2-c2c1c1ccc(F)cc1c(=O)n2CCCNCCO)OCO3 ?
-- reply True

-- ask Hi team, can someone confirm the assay call for N#Cc1cnn(-c2nc3c(Cl)cccc3s2)c1N ?
-- reply False

-- ask Hi team, can someone confirm the assay call for CCOc1nc(-c2ccccc2)cc2c(O)c(C(=O)N/N=C/c3ccc(O)cc3O)[nH]c(=O)c12 ?
-- reply False

-- ask Hi team, can someone confirm the assay call for COc1ccc2c(c1)O/C(=C\c1cccc(OCC(=O)Nc3nc4c(s3)CCCC4)c1)C2=O ?
-- reply False

-- ask Hi team, can someone confirm the assay call for Nc1ccc(-c2cc3c(NCc4ccccc4)ncnc3s2)cc1 ?
-- reply False

-- ask Hi team, can someone confirm the assay call for COC(=O)c1ccc(NC(=O)c2ccc(-c3cccc([N+](=O)[O-])c3)o2)cc1 ?
-- reply False

-- ask Hi team, can someone confirm the assay call for N#C/C(=C\c1ccc(-c2ccc(Cl)c(Cl)c2)o1)c1nc(-c2ccco2)cs1 ?
-- reply False

-- ask Hi team, can someone confirm the assay call for COc1cc(/C=C/C(=O)c2ccc(O)c(CN3CCN(c4cc5c(cc4F)c(=O)c(C(=O)O)cn5C4CC4)CC3)c2)cc(OC)c1OC ?
-- reply False

-- ask Hi team, can someone confirm the assay call for CC1=CC(=NN=c2cc(C)n([O-])c(C)c2)C=C(C)[N+]1=O ?
-- reply False

-- ask Hi team, can someone confirm the assay call for OC(COc1cccc2ccccc12)CN1CCN(c2ccccc2Cl)CC1 (stereo unspecified) ?
-- reply False
